Overview of recorded IC50 for various compounds
measured.target: Sheep sEH (Ovis aries, UniProt A0ACI6PZ20)
Sequence (A0ACI6PZ20 entry or part of it): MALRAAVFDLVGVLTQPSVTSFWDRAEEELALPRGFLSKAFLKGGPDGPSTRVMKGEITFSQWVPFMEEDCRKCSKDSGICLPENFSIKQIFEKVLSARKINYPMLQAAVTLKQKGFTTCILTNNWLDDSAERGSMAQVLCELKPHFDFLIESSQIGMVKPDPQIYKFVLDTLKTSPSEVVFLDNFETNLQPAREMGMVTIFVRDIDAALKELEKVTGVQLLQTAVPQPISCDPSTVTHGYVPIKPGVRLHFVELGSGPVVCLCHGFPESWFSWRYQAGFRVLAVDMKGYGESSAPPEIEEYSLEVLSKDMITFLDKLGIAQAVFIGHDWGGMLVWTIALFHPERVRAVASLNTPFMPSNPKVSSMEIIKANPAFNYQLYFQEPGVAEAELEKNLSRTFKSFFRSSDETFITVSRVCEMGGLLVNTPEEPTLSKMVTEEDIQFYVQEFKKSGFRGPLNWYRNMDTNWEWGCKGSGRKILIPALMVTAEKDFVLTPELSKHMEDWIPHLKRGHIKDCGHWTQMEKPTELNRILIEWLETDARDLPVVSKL
Note: unit µM is implicit; provide only the numeric part.

Record excerpt, results attached:
O=C(Nc1ccc(OC(F)(F)F)cc1)NC1CCN(C(=O)C2CC2)CC1 [compound 2214]	0.018
CCS(=O)(=O)N1CCC(NC(=O)Nc2ccc(OC(F)(F)F)cc2)CC1 [compound 2213]	0.033

Need IC50 of CS(=O)(=O)N1CCC(NC(=O)Nc2ccc(OC(F)(F)F)cc2)CC1 [compound 1709] , thanks.
0.03

====

measured.target: Canine sEH (Canis lupus familiaris, UniProt A0A8I3NJL8)
Sequence (A0A8I3NJL8 1-556): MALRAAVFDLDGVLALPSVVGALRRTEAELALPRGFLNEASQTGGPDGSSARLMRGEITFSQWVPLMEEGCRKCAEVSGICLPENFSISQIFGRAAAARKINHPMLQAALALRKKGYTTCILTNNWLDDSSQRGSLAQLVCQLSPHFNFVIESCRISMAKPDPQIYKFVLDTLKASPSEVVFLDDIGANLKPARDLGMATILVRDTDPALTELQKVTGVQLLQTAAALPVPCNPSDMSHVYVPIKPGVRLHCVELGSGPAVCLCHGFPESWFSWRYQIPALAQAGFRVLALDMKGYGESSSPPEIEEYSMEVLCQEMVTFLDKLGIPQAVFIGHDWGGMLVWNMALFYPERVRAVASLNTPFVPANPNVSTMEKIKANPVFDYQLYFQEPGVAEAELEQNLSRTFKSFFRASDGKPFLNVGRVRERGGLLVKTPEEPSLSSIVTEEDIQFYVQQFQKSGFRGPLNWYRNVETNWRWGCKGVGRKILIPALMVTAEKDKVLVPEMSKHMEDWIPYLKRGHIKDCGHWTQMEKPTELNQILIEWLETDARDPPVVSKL
measured.parameter: IC50 (nM)
Write down the numeric answer in nM and omit the unit.

O=C(Nc1ccccc1F)N[C@H]1CC[C@H](Oc2ccc(C(=O)O)cc2)CC1	39

Tell me the measured IC50 of "O=C(Nc1ccc(Oc2ccc(C(=O)O)cc2)cc1)Nc1ccc(OC(F)(F)F)cc1" , please.
42
